Source listed as PubChem BioAssay (NCI).

Known growth of a selection of compounds
tested on: NCI-H23 lung; test: NCI-60 one-dose screen, 48 h (100 = growth as untreated, 0 = no growth, -100 = all killed); settings: 10 µM
About 83,000 compounds went through this panel and 20% of them were active in at least one assay; those are over-represented in the sample as a whole.
QUANTITY MEASURED: growth (%)

{"columns": ["COMPOUND", "RESULT NUMBER"],
 "data": [
  ["CC1CN(Cc2ccccc2)C(=O)NC1=O (stereo not given)", 110],
  ["COc1cc(-c2nc(-c3nnc(-c4ccc(F)c(Cl)c4)o3)c3ccccn23)cc(OC)c1OC", 70.1],
  ["COc1cc(C2CC(c3ccc(Nc4ccnc5cc(Cl)ccc45)cc3)=NN2c2ccc(Cl)cc2)cc(OC)c1OC (stereo not given)", 74.4],
  ["Cc1ccc(NC(=O)CSc2nc3ccccc3c(=O)n2CCc2ccccc2)c(C(=O)O)c1", 101],
  ["COc1cc(NC(=O)CCSc2nc3ccc(C)cc3c(=O)n2Cc2ccccc2)cc(OC)c1OC", 108]
]}

###

tested on: A498 renal; assay: NCI-60 one-dose screen, 48 h (100 = growth as untreated, 0 = no growth, -100 = all killed); settings: 10 µM
The panel holds about 83,000 compounds, 20% with a hit somewhere; the sample as a whole holds those more often.

{"columns": ["COMPOUND", "growth (%)"],
 "data": [
  ["O=C1OCC2=C1C(c1cccc(Cl)c1)c1cc3c(cc1N2CCO)OCO3 (stereo not given)", -7.88],
  ["CCc1ccc2c(c1)N(CCO)C1=C(C(=O)OC1)C2c1cc(OC)c(OC)c(OC)c1 (stereo not given)", -13.7],
  ["CSc1nc(=O)n(Cc2ccc(F)cc2)c(=O)n1Cc1ccc(C)cc1", 106],
  ["CC(=O)n1c(-c2ccc(Cl)c(Cl)c2)cn(-c2ccc(Cl)cc2)c1=O", 4.91],
  ["CCCCCCCCCCCCCCCC(=O)OC1[C@@H](OC(=O)CCCCCCCCCCCCCCC)[C@@H](C(=O)N[C@@H](CCCCN)C(=O)OC)O[C@H]1n1cnc2c(=O)[nH]c(NC(=O)C(C)C)nc21 (stereo not given in full)", 98.1],
  ["CCN(CC)CCOc1nc2cc(OC)c(OC)cc2c2c1-c1ccc(OC)cc1C2=O", 96.6],
  ["COc1ccc(NC(=O)Cc2nc3nc4sc(C)c(C)c4c(=O)n3[nH]2)cc1", 122],
  ["COc1cc(-c2cc(/C=C/C(=O)c3ccc4c(c3)OCO4)[nH]n2)cc(OC)c1OC", 73.7],
  ["COc1ccc(-c2nc3sccn3c2-c2nc3c([nH]2)C(=O)c2ccccc2C3=O)cc1", 49.7],
  ["O=[N+]([O-])c1ccc(N/N=C/c2cccc3ccccc23)nc1", 106],
  ["CN(CCc1ccccn1)c1ccccc1", 109],
  ["C[C@]12CC[C@@H]3c4ccc(O)cc4C[C@@H](O)[C@H]3[C@@H]1CC[C@@H]2O", 79.6],
  ["COc1cc(-c2nnc(-c3c(-c4ccc(F)cc4)nc4ccccn34)o2)cc(OC)c1OC", 62.7],
  ["O=C(O)c1ccc(Cl)cc1Nc1ccc(F)cc1", 83.7],
  ["COc1ccc(-c2nn(-c3cccc(NC(=O)c4cccc(C(F)(F)F)c4)c3)cc2-c2ccncc2)cc1Cl", -11.9],
  ["Oc1[nH]c2cc(Cl)ccc2c1/C=c1/ccc2c(c1)N=C(c1cc(F)cc(F)c1)N=2", 0.502],
  ["COc1ccc(-c2ccc(-c3ccc(C(=N)N)cn3)o2)cc1", 59.4],
  ["Nc1nc(-c2ccccc2Cl)cc(-c2ccc(Cl)cc2Cl)n1", 53.7],
  ["CC(=O)N1C/C(=C/c2ccc(Cl)cc2)C(=O)/C(=C/c2ccc(Cl)cc2)C1", -5.57],
  ["O=C(c1ccc(Cl)cc1Cl)N1CCOCC1", 91.2]
]}
